Study Target: α1A-AR-A4 (and its variants α1A-AR-A4 (L312F), α1A-AR-A4-active) (Homo sapiens, UniProt P35348, C14S/T15I/L36I/I65V/N67Y/L80M/F86Y/G127A/G143A/W151F/E171V/F312L/N322K/P327L/S329Y)
Construct: thermostabilised, C-terminus truncated at Ser351 plus A and His10
Sequence (P35348 2-351 C14S/T15I/L36I/I65V/N67Y/L80M/F86Y/G127A/G143A/W151F/E171V/F312L/N322K/P327L/S329Y): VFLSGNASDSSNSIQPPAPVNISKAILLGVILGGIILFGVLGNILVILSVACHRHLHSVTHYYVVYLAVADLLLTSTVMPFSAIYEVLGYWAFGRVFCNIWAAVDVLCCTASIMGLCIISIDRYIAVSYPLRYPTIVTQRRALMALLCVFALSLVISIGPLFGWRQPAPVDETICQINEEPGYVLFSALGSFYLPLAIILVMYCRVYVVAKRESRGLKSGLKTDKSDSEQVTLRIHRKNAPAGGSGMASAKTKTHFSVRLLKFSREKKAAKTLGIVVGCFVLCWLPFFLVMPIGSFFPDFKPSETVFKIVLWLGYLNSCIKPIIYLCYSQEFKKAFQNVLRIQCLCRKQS
Assay Explanation: QAPB competition binding, purified immobilised receptor (KingFisher)
Conditions: 10 nM QAPB, 20 mM HEPES pH 7.5, 100 mM NaCl, 0.02% DDM, 22 °C, 2 h
pKi: −log10 of the molar value.
Assay Endpoint: pKi

[
  {
    "Compound": "COc1cccc(OC)c1OCCNCC1COc2ccccc2O1 (centres unmarked) [WB-4101]",
    "pKi": 8.12
  },
  {
    "Compound": "C[C@H](Cc1cc2c(c(C(N)=O)c1)N(CCCO)CC2)NCCOc1ccccc1OCC(F)(F)F [Silodosin]",
    "pKi": 8.08
  }
]
